study-system: T1, full length human tau protein 2N4R (hT40) (human, UniProt P10636 1-758)
T1 construct: recombinant protein; also called T441
T1 sequence (P10636 other isoform, or with tags, fused parts or gaps limits assumed): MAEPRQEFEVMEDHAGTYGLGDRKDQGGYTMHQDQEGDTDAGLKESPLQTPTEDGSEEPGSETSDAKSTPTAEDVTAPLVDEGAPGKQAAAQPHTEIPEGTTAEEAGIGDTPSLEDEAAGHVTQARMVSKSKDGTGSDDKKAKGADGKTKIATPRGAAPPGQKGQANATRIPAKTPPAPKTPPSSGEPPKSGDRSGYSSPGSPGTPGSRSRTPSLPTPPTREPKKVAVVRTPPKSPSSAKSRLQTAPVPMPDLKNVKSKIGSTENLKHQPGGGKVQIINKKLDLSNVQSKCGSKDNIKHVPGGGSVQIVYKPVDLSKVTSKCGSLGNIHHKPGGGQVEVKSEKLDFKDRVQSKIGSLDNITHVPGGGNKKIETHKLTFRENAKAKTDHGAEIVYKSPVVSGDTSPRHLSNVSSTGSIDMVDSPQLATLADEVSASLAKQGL
procedure-text: sandwich ELISA, S1D12 mAb capture, chemiluminescence detection
readout-label: LoD
Param answer (str): number followed by unit.

# binder, LoD
measured = [
    ("S1G10 scAb (scFv, scAb (scFv-HuCk-His)) scFv: QVQLQESGPSLVKPSQTLSLTCTVSGFSLTSNSVGWVRQAPGKAPEWVAGIDTDGEEGYNPALNSRLSITRDTSKSQVSLSLSSVTSEDTAVYYCGRSYRADGLAYGYVQAIDYWGPGLLVTVSSEGKSSGASGESKVDDQAVLTQPSSMSGSLGQRVSITCSGSFIGISSVGWFQQLPGSGLRTIIVASDGRPSGVPDRFSMSKSGNTATLTISSLQAEDEADYFCGSSDRTQYTGVFGSGTRLTVLG", "0.12 ng/mL"),
]

# ---- query binder ----
Per the records, this binder ( S1G2 scAb (scFv, scAb (scFv-HuCk-His)) scFv: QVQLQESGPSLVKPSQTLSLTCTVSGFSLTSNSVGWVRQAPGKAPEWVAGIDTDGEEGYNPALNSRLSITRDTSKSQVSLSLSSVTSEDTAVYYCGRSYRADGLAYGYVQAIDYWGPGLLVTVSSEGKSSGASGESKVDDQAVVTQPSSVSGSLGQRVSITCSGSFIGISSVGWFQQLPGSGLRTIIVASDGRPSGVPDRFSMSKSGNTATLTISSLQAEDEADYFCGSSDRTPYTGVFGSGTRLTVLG ) has LoD equal to 0.12 ng/mL
